# target: Sialic acid-binding Ig-like lectin 9 (Homo sapiens)
# protocolSummary: Hs-Siglec9 ALPHAscreen SOP 20170721
# Parameters: scale not given: direction of the effect not stated beside the values
# conditionDetails: 10 µM
reportedEndpoint: Percent Effect (%)
Numbers only, in %.

Each molecule below has a recorded value; state its Percent Effect.
1. COc1ccccc1OCC(=O)NS(=O)(=O)c1ccccc1F
2. CCN1CCOC(CNCc2ccccc2OCC(=O)N(C)C)C1 (configuration not stated)

1. 25.9
2. 0.0919

Each molecule below has a recorded value; state its Percent Effect.
1. CNC(=O)CSc1cnn(CC(=O)Nc2cccc(Cl)c2C)c(=O)c1Cl
2. O=C(c1cccc(Cl)c1)N1CCCn2c(CN3CCCCC3)nnc2C1
3. CC(O)CN1CCN(C(=O)c2cccc(CC#N)c2)CC1 (configuration not stated)
4. COc1ccc(CN(Cc2cncn2C)CC2CCCO2)c(OC)c1 (configuration not stated)

1: 4.21; 2: 1.72; 3: -2.88; 4: -4.44

Each molecule below has a recorded value; state its Percent Effect.
1. Cc1csc(CNC(=O)N(C)Cc2cnn(C)c2)n1
2. COC(=O)c1sccc1S(=O)(=O)N1CCC(Oc2ncccc2Cl)CC1
3. CC(C)Oc1ccccc1CNC(=O)N1CCC(n2cncn2)CC1
4. CCn1nc(CC(C)C)cc1C(=O)N1C[C@H](O)[C@@H](N2CCCCC2)C1

2.62
1.08
-3.04
15.8

Each molecule below has a recorded value; state its Percent Effect.
1. CCNc1cc2c(nn1)CCN(C(=O)c1ccc(NC3CC3)nc1)C2
2. CN(C)CCN1CCO[C@@H]2CN(C(=O)c3cccs3)CC[C@@H]2C1
3. Cc1nc(-c2ccccc2)n(CC(=O)N(C(C)C)C(C)C)n1
4. CSc1ccsc1C(=O)N1CCN(CC(C)(C)O)CC1
5. CN(C)C(=O)N1C[C@@H]2CC[C@H](C1)N(Cc1ccc3nsnc3c1)C2
6. CCc1nccn1C1CCCN(C(=O)c2ccc(C(=O)NC)nc2)C1 (configuration not stated)

1: 11.3; 2: 2.08; 3: 5.09; 4: 1.08; 5: -5.35; 6: 2.31

###

# target: Arginase-2, mitochondrial (Homo sapiens)
# protocolSummary: in vitro enzyme assay to detect the production of urea directly proportional to the activity of Arginase II; further: in the data most compounds retested in dose-response had high values
# Type: functional
# Parameters: scale not given: direction of the effect not stated beside the values
# conditionDetails: 33.3 µM
Can you tell me Percent Effect for the items I'm about to list?
Give bare numbers, in %.

Take a look at these entries with their results.
molecule="Cc1cc(NC(=O)CN2CCCC2c2noc(C3CC3)n2)no1 (stereo unspecified)" target="Arginase-2, mitochondrial (Homo sapiens)" reportedendpoint="Percent Effect" valueobserved=-0.909
molecule="NC(=O)NCC1CCCCN1C(=O)c1cccc(C(F)(F)F)c1 (stereo unspecified)" target="Arginase-2, mitochondrial (Homo sapiens)" reportedendpoint="Percent Effect" valueobserved=-6.47
molecule="Cc1nc(C)n(CC2CCCN(Cc3nc(C4CC4)no3)C2)n1 (stereo unspecified)" target="Arginase-2, mitochondrial (Homo sapiens)" reportedendpoint="Percent Effect" valueobserved=-4.41
molecule="CCCNC(=O)CNc1ccc(C(=O)N2CCCCC2C)cc1C (stereo unspecified)" target="Arginase-2, mitochondrial (Homo sapiens)" reportedendpoint="Percent Effect" valueobserved=0.712

Each molecule below has a recorded value; state its Percent Effect.
1. Cn1nc(CNC(=O)NCc2ccc(Cl)cc2)c2c1CCOC2
2. Cc1nc(C)c(CC(=O)N2C[C@H]3CC[C@@H]2CN(C(=O)N(C)C)C3)c(=O)[nH]1
3. COC(=O)c1cccc(C(=O)N2CCCCC2CCn2ccnc2C)c1 (stereo unspecified)
4. O=c1nc(SCc2cccnc2)c2c(n1CCO)CCC2
5. NS(=O)(=O)CCNC(=O)c1nnn(-c2ccccc2)c1C1CC1
6. CCOc1cccc(C(=O)NCCC(=O)Nc2ccncc2)c1
7. CC(C)(C)n1cc(C(=O)N2CCN(Cc3ccccc3F)CC2)cn1

1: -7.1; 2: -1.74; 3: -0.521; 4: 5; 5: 2.92; 6: 8.28; 7: 0.383
